species: Rattus norvegicus; test: Open TG-GATES - Regimen: Single; assay type: toxicity, organism-based, Sprague-Dawley; parameters: regimen Single, gender Male, age 6 weeks; details: in vivo, po, 100 mg/kg, 6 h, tissue Blood, route gavage, dose level High
Attribute: Mono
Report the value in % with no unit label.

CN(C)CCCN1c2ccccc2CCc2ccc(Cl)cc21 ... 2.8

Query block: Return reported Mono; argument: `CN(C)CCCN1c2ccccc2CCc2ccccc21`
Result block: 3

Query block: Return reported Mono; argument: `CN(C)CCN(Cc1cccs1)c1ccccn1`
Result block: 2.4

Query block: Return reported Mono; argument: `CC1=C(/C=C/C(C)=C/C=C/C(C)=C/CO)C(C)(C)CCC1`
Result block: 4.8
